Target: abc isoform of human TMEM16A channel expressed in CHO cells (Homo sapiens, UniProt Q5XXA6, DEL476-501)
Sequence (Q5XXA6 with tags, fused parts or gaps isoform Q5XXA6-5 DEL539-564): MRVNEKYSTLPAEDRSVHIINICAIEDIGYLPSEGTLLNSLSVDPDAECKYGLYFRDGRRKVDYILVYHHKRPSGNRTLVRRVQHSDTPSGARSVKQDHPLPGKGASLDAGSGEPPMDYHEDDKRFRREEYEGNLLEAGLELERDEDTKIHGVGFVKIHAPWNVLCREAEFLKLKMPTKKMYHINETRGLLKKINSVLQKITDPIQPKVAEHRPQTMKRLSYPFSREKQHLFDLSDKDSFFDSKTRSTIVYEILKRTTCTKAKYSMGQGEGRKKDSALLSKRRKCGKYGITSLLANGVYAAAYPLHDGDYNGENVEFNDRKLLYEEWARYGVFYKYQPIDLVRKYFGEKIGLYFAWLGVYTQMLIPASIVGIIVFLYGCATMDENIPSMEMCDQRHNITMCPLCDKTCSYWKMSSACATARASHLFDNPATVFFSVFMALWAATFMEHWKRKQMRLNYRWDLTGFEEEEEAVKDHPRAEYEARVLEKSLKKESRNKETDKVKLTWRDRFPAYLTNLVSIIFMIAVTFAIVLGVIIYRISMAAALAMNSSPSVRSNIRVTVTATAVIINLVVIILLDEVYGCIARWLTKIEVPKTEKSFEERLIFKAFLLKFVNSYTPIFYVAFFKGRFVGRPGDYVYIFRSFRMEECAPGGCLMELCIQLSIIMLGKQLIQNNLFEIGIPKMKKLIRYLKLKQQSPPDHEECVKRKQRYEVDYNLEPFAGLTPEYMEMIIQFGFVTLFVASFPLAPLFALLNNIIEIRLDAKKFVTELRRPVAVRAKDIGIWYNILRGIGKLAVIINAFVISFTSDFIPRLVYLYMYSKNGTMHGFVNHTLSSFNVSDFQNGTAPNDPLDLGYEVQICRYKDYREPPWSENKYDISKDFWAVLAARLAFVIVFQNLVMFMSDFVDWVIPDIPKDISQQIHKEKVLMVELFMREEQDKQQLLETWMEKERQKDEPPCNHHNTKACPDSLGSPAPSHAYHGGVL
Assay: Automated patch clamping (QPatch) assay to measure TMEM16A activity in whole-cell
Conditions: CHO cells expressing human TMEM16A (abc), whole-cell automated patch clamp, Hill fit; read-out: TMEM16A QPATCH assay EC50 V3 EC50
Value Kind: EC50 (nM)

The examples below pair each entry with its known result.
| Compound | EC50 / nM |
| --- | --- |
| CCC(CC)NC(=O)c1cnc(-c2cccc(-c3cc(C(=O)N[C@@H](C)C(=O)OC)n[nH]3)c2)o1 [Example 3.42] | 690 |
| CCC(CC)NC(=O)c1cnc(-c2cccc(-c3cc(C(=O)NC(C4CC4)C4CCCO4)n[nH]3)c2)o1 (single isomer, unassigned) [Example 3.4 (iii)] | 550 |
| CCC(CC)NC(=O)c1cc(-c2cccc(-c3ncc(C(=O)N[C@@H](C)C4CC4)o3)c2)nn1CCO [Example 4.0] | 330 |
| COC(=O)[C@@H](NC(=O)c1cnc(-c2cccc(-c3cc(C(=O)N[C@@H](C)C4CC4)n(CC(O)C(F)(F)F)n3)c2)o1)C(C)C (single isomer, unassigned) [8.1 (ii)] | 20 |
| O=C(NC1CCCC1)c1cnc(-c2cccc(-c3cc(C(=O)NC4CCCC4)n(CCCO)n3)c2)o1 [Example 5.2] | 840 |

P. CCC(CC)NC(=O)c1cc(-c2cccc(-c3ncc(C(=O)Nc4cc(C)cc(C)c4)o3)c2)[nH]n1 [Example 1.3]
Q. CCC(CC)NC(=O)c1cc(-c2cccc(-c3ncc(C(=O)Nc4ccon4)o3)c2)[nH]n1 [Example 1.30]
Between the two listed entries P and Q , which has its EC50 at the higher number? // output: label of the selected item
Q

1. CCC(CC)NC(=O)c1cnc(-c2cccc(-c3cc(C(=O)N[C@@H](C)C4CC4)n(CC(C)(C)O)n3)c2)o1 [Example 8.0]
2. CCCC(CCC)NC(=O)c1cc(-c2cccc(-c3ncc(C(=O)NC(CC)CC)o3)c2)[nH]n1 [Example 3.2]
Between the two listed entries 1 and 2 , which has its EC50 at the higher number? // output: label of the selected item
1
